- studyTarget: recombinant soluble homotrimeric HA of A/swine/Ontario/01911-2/99 (H4N6) (Influenza A virus A/Swine/Ontario/01911-2/99 (H4N6))
- experimentalDetails: HA microarray, BCC supernatant
- measurementParameters: remark: other sources report otherwise
observationType: Trimeric HA Binding: RLU (RLU)
Give a bare numeral; the unit RLU is implied.

INPUT: Value lookup for Trimeric HA Binding: RLU; key = TCN-543 (5081_G23) (antibody, V domains shown) VH: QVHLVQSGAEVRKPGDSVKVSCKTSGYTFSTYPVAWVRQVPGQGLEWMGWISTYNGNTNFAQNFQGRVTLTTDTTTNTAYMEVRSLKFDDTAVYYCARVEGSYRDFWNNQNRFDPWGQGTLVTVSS VL: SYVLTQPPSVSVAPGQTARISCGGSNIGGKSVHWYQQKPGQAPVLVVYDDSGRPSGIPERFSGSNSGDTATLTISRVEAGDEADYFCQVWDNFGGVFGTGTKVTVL
OUTPUT: 428
